- Test system: ACHN renal
- testDetails: NCI tumour cell line growth inhibition, 48 h
*1 amine or outer side, *2 acyl side, *3 side chain or, on linkers, in order; H or OH if unused. Where a SMILES comes first, the peptide text is derived from it. [ ]: non-standard residue; d: D form. The star is where a group is joined. Phe(4-NO2) = N[CH](Cc1ccc([N+](=O)[O-])cc1)C(=O)O; γGlu = O=C(O)[CH](CCC(=O)[*:2])N[*:1]; Boc = CC(C)(C)OC(=O)*; NHOH = ON*
Entries and their TGI values follow.
quantityName: TGI

- compound: "C=C(C)CC(C)(c1cc2ccccc2n1C)N1CCOCC1 (stereo unspecified)"
  targetDesc: "ACHN renal"
  quantityName: "TGI"
  valueObserved: "> 100 µM"
- compound: "Nc1nc2ncn(CC(O)COC(=O)c3ccccc3)c2c(=O)[nH]1 (stereo unspecified)"
  targetDesc: "ACHN renal"
  quantityName: "TGI"
  valueObserved: "> 100 µM"
- compound: "O=C(O)COc1ccc(C(=O)/C(SS/C(C(=O)c2ccc(OCC(=O)O)c(Cl)c2Cl)=C2\\C=C(c3ccccc3Cl)SS2)=C2/C=C(c3ccccc3Cl)SS2)c(Cl)c1Cl"
  targetDesc: "ACHN renal"
  quantityName: "TGI"
  valueObserved: "> 68.9 µM"
- compound: "N#CC1C(=O)NC(=O)C1=O (stereo unspecified)"
  targetDesc: "ACHN renal"
  quantityName: "TGI"
  valueObserved: "> 100 µM"
- compound: "COC(=O)CCC(NC(=O)OC(C)(C)C)C(=O)NC(Cc1ccc([N+](=O)[O-])cc1)C(=O)NC(CCC(=O)OC)C(=O)OC (stereo unspecified) (Boc-Glu(OMe)-[Phe(4-NO2)]-Glu(OMe)-OMe; configuration not given here)"
  targetDesc: "ACHN renal"
  quantityName: "TGI"
  valueObserved: "> 100 µM"
- compound: "COc1cc(NC(=O)c2ccccc2Nc2ccnc(C(F)(F)F)c2)cc(OC)c1OC"
  targetDesc: "ACHN renal"
  quantityName: "TGI"
  valueObserved: "> 100 µM"
- compound: "C#Cc1ccc(-n2c(/C=C/c3ccc4ccccc4c3)nc3ncccc3c2=O)cc1"
  targetDesc: "ACHN renal"
  quantityName: "TGI"
  valueObserved: "> 100 µM"
- compound: "O=C1N(CN2CCOCC2)CN(CN2CCOCC2)C(=O)N1Cc1ccc(CN2C(=O)N(CN3CCOCC3)CN(CN3CCOCC3)C2=O)cc1"
  targetDesc: "ACHN renal"
  quantityName: "TGI"
  valueObserved: "> 100 µM"
- compound: "Nc1nnc2oc3ccc4ccccc4c3cc1-2"
  targetDesc: "ACHN renal"
  quantityName: "TGI"
  valueObserved: "80.1 µM"
- compound: "COc1ccc(C(=C2C(=O)N(c3ccccc3)C(=O)C2=C(C)C)c2ccc(OC)cc2)cc1"
  targetDesc: "ACHN renal"
  quantityName: "TGI"
  valueObserved: "> 31.7 µM"
- compound: "N#CCC1(c2ccc(Cl)cc2)NC(=O)c2ccccc21 (stereo unspecified)"
  targetDesc: "ACHN renal"
  quantityName: "TGI"
  valueObserved: "> 100 µM"
- compound: "O=c1c2ccccc2nc2sc(/N=C/C=C/c3ccccc3)nn12"
  targetDesc: "ACHN renal"
  quantityName: "TGI"
  valueObserved: "> 100 µM"
- compound: "COc1c2ccccc2c(O)c2c(=O)ccn(C)c12"
  targetDesc: "ACHN renal"
  quantityName: "TGI"
  valueObserved: "46.3 µM"
- compound: "CNC(C)Cc1ccccc1OC (stereo unspecified)"
  targetDesc: "ACHN renal"
  quantityName: "TGI"
  valueObserved: "> 100 µM"
- compound: "Cc1ccc2nc3c(C)cc(=O)cc-3sc2c1"
  targetDesc: "ACHN renal"
  quantityName: "TGI"
  valueObserved: "53.1 µM"
- compound: "Fc1ccc(-c2c(-c3ccncc3)[nH]c3nccnc23)cc1"
  targetDesc: "ACHN renal"
  quantityName: "TGI"
  valueObserved: "> 25 µM"
- compound: "Cc1c2cc[n+](C)cc2c(C)c2c1oc1ccccc12"
  targetDesc: "ACHN renal"
  quantityName: "TGI"
  valueObserved: "> 100 µM"
- compound: "CN(C)c1ccc(/C=c2/c3ccccc3n3c2cc(NC(=O)NCCC[N+](C)(C)C)[n+]3C)cc1"
  targetDesc: "ACHN renal"
  quantityName: "TGI"
  valueObserved: "> 100 µM"
- compound: "Nc1nc(OCC2CCCCC2)c2[nH]cnc2n1"
  targetDesc: "ACHN renal"
  quantityName: "TGI"
  valueObserved: "38.4 µM"
- compound: "COc1cc(/C=C/c2cc(O)c(C/C=C(\\C)CC/C=C(\\C)CO)c(O)c2)cc2c1O[C@]1(C)CC[C@@H](O)C(C)(C)[C@H]1C2"
  targetDesc: "ACHN renal"
  quantityName: "TGI"
  valueObserved: "> 71.4 µM"
- compound: "COc1ccc(-c2nc3sccn3c2-c2ccnc(NCCCNS(=O)(=O)c3ccc(F)cc3)n2)cc1"
  targetDesc: "ACHN renal"
  quantityName: "TGI"
  valueObserved: "7.73 µM"
- compound: "C[N+]1(C)C[C@@H](O)C[C@@H]1C(=O)[O-]"
  targetDesc: "ACHN renal"
  quantityName: "TGI"
  valueObserved: "> 100 µM"
- compound: "ClCCCCOC1CCCCO1 (stereo unspecified)"
  targetDesc: "ACHN renal"
  quantityName: "TGI"
  valueObserved: "> 100 µM"
- compound: "COc1cc([N+](=O)[O-])ccc1N1C(=O)C2c3[nH]c4ccccc4c3C3CCC(C(C)(C)C)CC3C2C1=O (stereo unspecified)"
  targetDesc: "ACHN renal"
  quantityName: "TGI"
  valueObserved: "> 100 µM"
- compound: "COc1ccc2nc3cc(Cl)ccc3c(Nc3cc(C(C)C)c(O)cc3C)c2c1"
  targetDesc: "ACHN renal"
  quantityName: "TGI"
  valueObserved: "5.08 µM"
- compound: "Cc1ccc(N=NC(C2=NC(=O)CS2)c2nc3ccccc3[nH]2)cc1 (stereo unspecified)"
  targetDesc: "ACHN renal"
  quantityName: "TGI"
  valueObserved: "> 100 µM"
- compound: "Cc1ccc(S(=O)(=O)CC2(Br)CCc3ccccc3C2=O)cc1 (stereo unspecified)"
  targetDesc: "ACHN renal"
  quantityName: "TGI"
  valueObserved: "38.2 µM"
- compound: "N=c1oc2ccc(Cl)cc2cc1C(N)=O"
  targetDesc: "ACHN renal"
  quantityName: "TGI"
  valueObserved: "> 100 µM"
- compound: "Cc1ccc(/C=C2\\NC(=S)N(CN3CCCCC3)C2=O)cc1"
  targetDesc: "ACHN renal"
  quantityName: "TGI"
  valueObserved: "> 100 µM"
- compound: "COCCOC1=C(Cl)C(=O)c2c(O)ccc(O)c2C1=O"
  targetDesc: "ACHN renal"
  quantityName: "TGI"
  valueObserved: "2.96 µM"
- compound: "O=c1oc2c/c(=C\\c3ccccn3)c(=O)c3cccc1c3-2"
  targetDesc: "ACHN renal"
  quantityName: "TGI"
  valueObserved: "> 100 µM"
- compound: "N=C1/C(=C2\\Nc3ccccc3S2)CC(=O)N1c1ccc(SC(F)F)cc1"
  targetDesc: "ACHN renal"
  quantityName: "TGI"
  valueObserved: "> 100 µM"
- compound: "C=C(CO)[C@H]1Oc2ccc(C(C)=O)cc2[C@@H]1O"
  targetDesc: "ACHN renal"
  quantityName: "TGI"
  valueObserved: "> 100 µM"
- compound: "CCOC(=O)CNC(=O)C(CCC(=O)NO)NC(=O)CCC(N)C(=O)O (stereo unspecified) (γGlu-Glu(NHOH)-Gly-OEt; configuration not given here)"
  targetDesc: "ACHN renal"
  quantityName: "TGI"
  valueObserved: "> 100 µM"
- compound: "C=C1C(=O)C2(C)OC2(C)C1C(=O)O (stereo unspecified)"
  targetDesc: "ACHN renal"
  quantityName: "TGI"
  valueObserved: "> 100 µM"
- compound: "CCOP(=O)(OCC)C(Nc1cccc(F)c1)c1ccc(N(C)C)cc1 (stereo unspecified)"
  targetDesc: "ACHN renal"
  quantityName: "TGI"
  valueObserved: "> 100 µM"
- compound: "c1ccc2c(c1)N=C(c1ccc3ccccc3c1)CC(c1cccc3ccccc13)S2 (stereo unspecified)"
  targetDesc: "ACHN renal"
  quantityName: "TGI"
  valueObserved: "> 100 µM"
- compound: "Cn1cnc([N+](=O)[O-])c1Sc1nc2ccc([N+](=O)[O-])cc2[nH]1"
  targetDesc: "ACHN renal"
  quantityName: "TGI"
  valueObserved: "> 100 µM"
- compound: "Cc1ccc([N+](=O)[O-])cc1S(=O)(=O)Nc1ccc(C2=NOC(c3ccccc3O)C2)cc1 (stereo unspecified)"
  targetDesc: "ACHN renal"
  quantityName: "TGI"
  valueObserved: "> 100 µM"
- compound: "C[N+](C)(C)CCOP(=O)([O-])OCCNC(=O)c1ccc2ccccc2c1"
  targetDesc: "ACHN renal"
  quantityName: "TGI"
  valueObserved: "> 100 µM"
- compound: "O=C(c1ccccc1)N1CCC(Nc2nccs2)O1 (stereo unspecified)"
  targetDesc: "ACHN renal"
  quantityName: "TGI"
  valueObserved: "> 10 µM"

Origin of values: PubChem BioAssay (NCI)
